This listing pairs compounds with measured inhibition at 20 µM.
# Assay system: NKCC1 (Homo sapiens, UniProt P55011)
# Construct: endogenous in cells; host or cells: native HEK293 cells
# Sequence (P55011 1-1212): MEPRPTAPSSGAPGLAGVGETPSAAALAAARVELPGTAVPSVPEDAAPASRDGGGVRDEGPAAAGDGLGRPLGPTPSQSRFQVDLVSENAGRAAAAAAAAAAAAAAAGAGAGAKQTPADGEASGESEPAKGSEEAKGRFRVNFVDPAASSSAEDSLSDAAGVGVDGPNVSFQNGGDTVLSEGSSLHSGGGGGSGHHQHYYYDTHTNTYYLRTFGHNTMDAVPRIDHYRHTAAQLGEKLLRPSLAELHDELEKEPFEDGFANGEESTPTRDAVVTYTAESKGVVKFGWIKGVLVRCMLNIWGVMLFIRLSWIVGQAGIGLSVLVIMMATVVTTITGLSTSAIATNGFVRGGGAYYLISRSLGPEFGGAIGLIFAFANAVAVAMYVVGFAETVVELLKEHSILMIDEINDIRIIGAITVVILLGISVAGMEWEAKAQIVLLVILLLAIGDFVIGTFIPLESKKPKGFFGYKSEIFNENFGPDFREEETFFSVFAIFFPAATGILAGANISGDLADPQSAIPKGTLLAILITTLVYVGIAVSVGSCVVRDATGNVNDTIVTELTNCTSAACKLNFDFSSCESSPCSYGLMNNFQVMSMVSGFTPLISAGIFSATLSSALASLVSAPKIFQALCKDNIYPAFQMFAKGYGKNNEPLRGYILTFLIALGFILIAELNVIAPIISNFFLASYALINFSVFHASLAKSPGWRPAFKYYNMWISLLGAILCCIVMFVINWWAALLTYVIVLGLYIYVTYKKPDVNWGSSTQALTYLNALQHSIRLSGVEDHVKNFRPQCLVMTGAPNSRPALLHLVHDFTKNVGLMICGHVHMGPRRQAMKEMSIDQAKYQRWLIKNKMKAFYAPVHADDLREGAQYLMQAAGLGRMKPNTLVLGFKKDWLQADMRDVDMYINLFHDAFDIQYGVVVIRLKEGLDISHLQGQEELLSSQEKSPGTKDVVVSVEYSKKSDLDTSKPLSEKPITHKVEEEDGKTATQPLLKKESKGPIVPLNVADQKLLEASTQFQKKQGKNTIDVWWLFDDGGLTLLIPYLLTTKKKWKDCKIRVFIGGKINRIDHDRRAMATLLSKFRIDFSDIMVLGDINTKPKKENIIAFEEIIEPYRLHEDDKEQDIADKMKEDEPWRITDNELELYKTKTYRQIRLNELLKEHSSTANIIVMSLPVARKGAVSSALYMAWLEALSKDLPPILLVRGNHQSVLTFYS
# Method description: NKCC1-mediated K+ influx (83Rb tracer uptake) in native HEK293 cells, hypertonic saline, 100 μM ouabain
# Type: cell-based
# Experimental context: HEK293; 20 μM; no drug = 1000, 20 μM bumetanide = 0; read-out: NKCC1 mediated flux inhibition at 20 μM (%)

Solved cases below.
CCCCNc1cc(C(=O)O)cc(S(=N)(=O)N(C)C)c1Oc1ccccc1 (stereo not shown) = 50 to 75%
CCCCNc1cc(C(=O)O)cc(S(=N)(=O)N2Cc3ccccc3C2)c1Oc1ccccc1 (stereo not shown) = ≥ 75%
CCCCNc1cc(C(=O)OC)cc(S(=N)(=O)N2CCc3ccccc32)c1Oc1ccccc1 (stereo not shown) = 10 to 30%
CCCCNc1cc(C(=O)O)cc(S(=N)(=O)NCC2CCOCC2)c1Oc1ccccc1 (stereo not shown) = 30 to 50%
CCCCNc1cc(C(=O)O)cc(S(=N)(=O)Nc2ccc(Cl)cc2)c1Oc1ccccc1 (stereo not shown) = ≥ 75%
CCCCNc1cc(C(=O)NCC(F)(F)F)cc(S(=N)(=O)NCc2cccc(Cl)c2)c1Oc1ccccc1 (stereo not shown) = 10 to 30%
CCCCNc1cc(C(=O)O)cc(S(=N)(=O)Nc2ccnnc2)c1Oc1ccccc1 (stereo not shown) = ≥ 75%
CCCCNc1cc(C(=O)O)cc(S(=N)(=O)NC2CC2)c1Oc1ccccc1 (stereo not shown) = 50 to 75%

Q: May I ask what inhibition at 20 µM has been recorded for CCCCNc1cc(C(=O)O)cc(S(=N)(=O)NC)c1Oc1ccccc1 (stereo not shown) ?
Result: ≥ 75%

Q: // inhibition at 20 µM lookup, key: CCCCNc1cc(C(=O)O)cc(S(=N)(=O)N(C)CC)c1Oc1ccccc1 (stereo not shown)
Result: 50 to 75%

Q: Query (compound): CN=S(C)(=O)c1cc(C(=O)OC)cc(N)c1Oc1ccccc1 (stereo not shown) ; field requested: inhibition at 20 µM
Result: 10 to 30%
